assay: recombinant barcode read abundance after kanamycin selection (control-corrected) (log10(CPM+1)); higher = more efficient recombination; sequences stand for … in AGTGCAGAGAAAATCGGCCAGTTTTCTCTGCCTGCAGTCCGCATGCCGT…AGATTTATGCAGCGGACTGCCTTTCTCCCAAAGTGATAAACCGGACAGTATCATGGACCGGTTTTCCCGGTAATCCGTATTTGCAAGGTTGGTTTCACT; site = the 11-nt target;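 note: IS621 recombinase and bridge RNA in Escherichia coli cells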
// recombinant barcode read abundance (log10) lookup, one value per entry
The answer should be a number; do not append a unit.

# query: recombinant barcode read abundance (log10) of entry TCCCAGTCTTGGGTTCTAACCTGTTGCTT (site TCCCAGTCTAT)
1.19

Then AGCGAATCTTGGGTTCTAACCTGTTGCCG (site AGCGAATCTCG) ?
0.217

Then GGCCGAACTTGGGTTCTAACCTGTTGCCT (site TGCCGAACTAG) ?
0.144

Then GTATCCGCTTGGGTTCTAACCTGTTGCCA (site GTATCCGCTTG) ?
1.55

Then CTAAGCTCTTGGGTTCTAACCTGTTGCTG (site CTAAGCTCTTA) ?
0.349

Then CGGGACCCTTGGGTTCTAACCTGTTGCCT (site CGTGACCCTAA) ?
0.634

Then GAGCAAACTTGGGTTCTAACCTGTTGCCT (site GAGCAAACTAG) ?
1.2

Then AGAGAGGCTTGGGTTCTAACCTGTTGCGG (site CGAGAGTCTCC) ?
0.125

Then AAGTTTACTTGGGTTCTAACCTGTTGCTT (site AAGTTTACTAG) ?
0.0137
